These data points were gathered from the supplement of paper PMC10702517.

Hi there, I'd appreciate the recorded chemical recovery into PDMS for every entry that follows.
Test: chemical recovery into PDMS from spiked human plasma; higher = better extraction
Conditions: pooled human plasma; extraction method: PES with PDMS; equilibration time (d): 3
Please state the figure in %; there is no need to write the unit.

// query Recorded chemical recovery into PDMS for COC(=O)N(OC)c1ccccc1COc1ccn(-c2ccc(Cl)cc2)n1 , please?
// result 47.9

// query Request: COc1ccc(C(=O)c2ccccc2)c(O)c1
// result 38.2

// query Request: CCOP(=S)(OCC)SCSP(=S)(OCC)OCC
// result 47.4

// query Request: C[C@]12CCC(=O)C=C1CC[C@@H]1[C@@H]2CC[C@@]2(C)[C@H]1CC[C@]2(C)O
// result 36.4

// query Request: C=CCC1=C(C)C(OC(=O)C2C(C=C(C)C)C2(C)C)CC1=O (stereo not given)
// result 38.6

* * *

Assay: chemical recovery from spiked human plasma; higher = better extraction
Conditions: pooled human plasma; extraction method: SPE only (HLB 96-well)
Param threshold (30%) applies to chemical recovery; output class 1 when value >= threshold, class 0 when value < threshold.

// query chemical recovery >= 30% for CCCCc1oc2ccccc2c1C(=O)c1cc(I)c(OCCN(CC)CC)c(I)c1 [Amiodarone] ?
// result class 1

// query Request: O=S(=O)(c1ccccc1)c1ccccc1 [Diphenylsulfone]
// result class 0

// query Request: CC(=O)CC(c1ccccc1)c1c(O)c2ccccc2oc1=O (stereo not given) [Warfarin]
// result class 1

// query Request: Cc1nc2ccccc2s1 [2-Methylbenzothiazole]
// result class 0

// query Request: O=P(c1ccccc1)(c1ccccc1)c1ccccc1 [Triphenylphosphine oxide]
// result class 1

// query Request: Cn1c(N)nc2ncc(-c3ccccc3)cc21 [2-Amino-1-methyl-6-phenylimidazo[4,5-b]pyridine-(PhIP)]
// result class 1

// query Request: c1ccc2c(c1)-c1cccc3c1c-2cc1ccccc13 [Benzo(b)fluoranthene]
// result class 0

// query Request: Cc1c(Br)c(Br)c(Br)c(Br)c1Br [Pentabromotoluene]
// result class 0

// query Request: O=C(NC(=O)c1c(F)cccc1F)Nc1ccc(Oc2ccc(C(F)(F)F)cc2Cl)cc1F [Flufenoxuron]
// result class 0

// query Request: Cc1cc2cccc(C)c2cc1C [1,6,7-Trimethylnaphthalene]
// result class 0

// query Request: O=S(=O)(O)C(F)(F)C(F)(F)C(F)(F)C(F)(F)F [Perfluorobutanesulfonic-acid]
// result class 1

// query Request: Sc1ncnc2nc[nH]c12 [6-Mercaptopurine]
// result class 0

// query Request: CC(C)C1C2CCC1c1c(NC(=O)c3cn(C)nc3C(F)F)cccc12 (stereo not given) [Isopyrazam]
// result class 1

// query Request: Oc1ccc(Cl)cc1O [3,4-Dihydroxy-chlorobenzene]
// result class 1

// query Request: O=C(Nc1ccccc1-c1ccc(Cl)cc1)c1cccnc1Cl [Boscalid]
// result class 1

// query Request: CC1NC(C)(C)COC1(O)c1cccc(Cl)c1 [(S,S)-Hydroxybupropion]
// result class 1

// query Request: CCCCC(CC)COC(=O)c1ccc(N(C)C)cc1 (stereo not given) [Padimate-O]
// result class 0

* * *

Assay: chemical recovery by SPE of plasma after PDMS sampling; higher = better extraction
Details: pooled human plasma; extraction method: HLB SPE of plasma after PES; equilibration time (d): 1
OBSERVED_PROPERTY: chemical recovery by SPE of plasma (%)
Please state the figure in %; there is no need to write the unit.

// query Recorded chemical recovery by SPE of plasma for CNC(=O)Oc1cccc2c1OC(C)(C)O2 [Bendiocarb] , please?
// result 20.4

// query Request: COc1ccc(C(=O)c2ccccc2)c(O)c1 [Benzophenone-3]
// result 1.5

// query Request: CO/C=C(/C(=O)OC)c1ccccc1COc1cccc(C(F)(F)F)n1 [Picoxystrobin]
// result 1.61

// query Request: CN(C)C(=O)C(CCN1CCC(O)(c2ccc(Cl)cc2)CC1)(c1ccccc1)c1ccccc1 [Loperamide]
// result 3.98

// query Request: O=c1[nH]c2ccccc2n1CCCN1CCC(n2c(=O)[nH]c3cc(Cl)ccc32)CC1 [Domperidone]
// result 44.4

* * *

Assay: chemical recovery from spiked human plasma; higher = better extraction
Conditions: pooled human plasma; extraction method: PES+SPE (3 d PDMS equilibration then HLB SPE)
Please use the following chemical recovery ranges when assigning a class: low (below 4%), mid (4% to below 30%), high (30% or more)

// query Classify this compound: O=C(O)c1cc(SSc2ccc([N+](=O)[O-])c(C(=O)O)c2)ccc1[N+](=O)[O-]
// result low

// query Request: CNC(=O)Oc1cc(C)c(SC)c(C)c1
// result low

// query Request: c1ccc2c(c1)[nH]c1ncccc12
// result mid

// query Request: COCCOCCOCCOCCOC
// result high

// query Request: COP(=O)(NC(C)=O)SC (stereo not given) [Acephate]
// result low

// query Request: O=[N+]([O-])c1ccc(O)cc1
// result high

// query Request: Cn1cc(C(=O)Nc2ccccc2-c2cc(F)c(F)c(F)c2)c(C(F)F)n1
// result high

// query Request: CCCCCCCC[N+](C)(C)C
// result high

// query Request: CCCNCCOc1c(Cl)cc(Cl)cc1Cl
// result low

// query Request: CCC(Cc1ccccc1)(C(=O)c1ccc(N2CCOCC2)cc1)N(C)C (stereo not given)
// result mid

* * *

Test: chemical recovery from spiked human plasma; higher = better extraction
Details: pooled human plasma; extraction method: SPE only (HLB 96-well)
OBSERVED_PROPERTY: chemical recovery (%)
Please state the figure in %; there is no need to write the unit.

// query Recorded chemical recovery for Nc1nc2ccccc2[nH]1 , please?
// result 18.8

// query Request: CS(=O)(=O)c1ccccc1
// result 19.9

// query Request: O=S(=O)(O)NC1CCCCC1 [Cyclamate]
// result 7.88

// query Request: N[C@@H](Cc1cc(I)c(Oc2cc(I)c(O)c(I)c2)c(I)c1)C(=O)O
// result 36.5

// query Request: Clc1ccc(Cl)c(-c2cc(Cl)ccc2Cl)c1
// result 3.67

// query Request: CO/C=C(/C(=O)OC)c1ccccc1COc1cccc(C(F)(F)F)n1
// result 38.3

// query Request: c1ccc2cc3c(ccc4ccccc43)cc2c1
// result 1.06

// query Request: CC(C)(c1ccc(O)c(-c2ccccc2)c1)c1ccc(O)c(-c2ccccc2)c1
// result 26.7

// query Request: O=C(/C=C/C=C/c1ccc2c(c1)OCO2)N1CCCCC1
// result 40.7

// query Request: Clc1cc(Cl)c(-c2ccc(Cl)c(Cl)c2Cl)cc1Cl
// result 2.27

// query Request: C[C@H](CCC(=O)O)[C@H]1CC[C@H]2[C@@H]3CC[C@@H]4C[C@H](O)CC[C@]4(C)[C@H]3C[C@H](O)[C@]12C
// result 38.5

// query Request: COc1ccc2cc(C(C)C(=O)O)ccc2c1 (stereo not given)
// result 63.8

// query Request: Cc1cc(Cc2cc(C)cc(C(C)(C)C)c2O)c(O)c(C(C)(C)C)c1
// result 7.83

// query Request: Cc1nccn1CC1CCc2c(c3ccccc3n2C)C1=O (stereo not given)
// result 32.6

// query Request: Cc1ccc2cc3ccccc3cc2c1
// result 3.56

// query Request: Cc1cccc(C)c1N(Cn1cccn1)C(=O)CCl
// result 38.6

// query Request: CC(C)(C)c1ccc2oc(-c3ccc(-c4nc5cc(C(C)(C)C)ccc5o4)s3)nc2c1
// result 0.938

// query Request: CC1COCc2cc3c(cc21)C(C)(C)C(C)C3(C)C (stereo not given) [Galaxolide]
// result 13.7

// query Request: c1ccc2c(c1)ccc1sc3ccccc3c12 [Benzo[b]naphtho(1,2-d)thiophene]
// result 0.745

// query Request: Clc1ccc2ccccc2c1
// result 0.106

// query Request: CCCCC(CC)COP(=O)(Oc1ccccc1)Oc1ccccc1 (stereo not given) [2-Ethylhexyldiphenylphosphate]
// result 38.9

// query Request: O=C1Nc2ccc(Cl)cc2C(c2ccccc2Cl)=NC1O (stereo not given)
// result 30.9

// query Request: CCCN(CCC)CCC
// result 7.35

// query Request: CCNc1nc(NC(C)C)[nH]c(=O)n1 [2-Hydroxyatrazine]
// result 29.1

// query Request: c1ccc2cc3c(cc2c1)-c1cccc2cccc-3c12
// result 1.23

// query Request: CC(C)(C)C(=O)C(Oc1ccc(Cl)cc1)n1ccnc1 (stereo not given)
// result 37.7

// query Request: CC(NC(C)(C)C)C(=O)c1cccc(Cl)c1 (stereo not given)
// result 37.7

// query Request: c1ccc(Nc2cccc3ccccc23)cc1
// result 45.8

// query Request: CCOC(=O)c1ccc(O)cc1
// result 45.3

// query Request: c1ccc2[nH]c(-c3cscn3)nc2c1
// result 41.3

// query Request: CN(C)CCC(c1ccc(Cl)cc1)c1ccccn1 (stereo not given)
// result 33.5

// query Request: CCNC(=O)[C@@H](C)OC(=O)Nc1ccccc1 [Carbetamide]
// result 47.2

// query Request: Cc1cccc2ccccc12
// result 2.62

// query Request: CC(C)NCC(O)COc1ccc(CC(=O)O)cc1 (stereo not given) [Metoprolol-acid]
// result 52.1

// query Request: Nc1ccc(Cc2ccc(N)c(Cl)c2)cc1Cl
// result 47

// query Request: COc1ccc2c(c1)c(CC(=O)O)c(C)n2C(=O)c1ccc(Cl)cc1
// result 33.3

// query Request: COc1cccc([C@@]2(O)CCCC[C@@H]2CN(C)C)c1
// result 31.2

// query Request: O=C(O)CCCCCCCC(=O)O
// result 53.1

// query Request: c1ccc2c(c1)Cc1cc3ccccc3cc1-2
// result 1.4

// query Request: Cc1ccc(NC(=O)N(C)C)cc1Cl
// result 46
